Target: recombinant homotrimeric HA A/chicken/Vietnam/NCVD-016/08 H5N1 (Influenza A virus A/chicken/Vietnam/NCVD-016/2008(H5N1))
Assay: protein microarray, purified IgG, trimeric HA
Details: remark: other sources report otherwise
MEASUREMENT_KIND: Trimeric HA Binding: RLU (RLU)

>  <BINDER>
TCN-544 (5082_A19) (antibody, V domains shown) VH: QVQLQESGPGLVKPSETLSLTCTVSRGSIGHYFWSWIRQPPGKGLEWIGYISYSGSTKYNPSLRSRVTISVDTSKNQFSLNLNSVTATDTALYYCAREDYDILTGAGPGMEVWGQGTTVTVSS VL: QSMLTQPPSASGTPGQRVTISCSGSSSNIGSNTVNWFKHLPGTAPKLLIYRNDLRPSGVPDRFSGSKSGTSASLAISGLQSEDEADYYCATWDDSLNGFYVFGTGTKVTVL

>  <REPORTED>
402

$$$$
>  <BINDER>
TCN-553 (5261_C18) (antibody, V domains shown) VH: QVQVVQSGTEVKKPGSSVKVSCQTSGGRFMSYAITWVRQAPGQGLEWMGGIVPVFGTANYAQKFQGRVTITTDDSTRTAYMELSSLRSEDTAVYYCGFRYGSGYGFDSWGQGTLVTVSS VL: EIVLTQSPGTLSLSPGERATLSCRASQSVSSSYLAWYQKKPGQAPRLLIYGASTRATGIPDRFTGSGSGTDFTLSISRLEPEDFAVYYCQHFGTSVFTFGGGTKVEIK

>  <REPORTED>
12400

$$$$
>  <BINDER>
TCN-558 (5248_H10b) (antibody, V domains shown) VH: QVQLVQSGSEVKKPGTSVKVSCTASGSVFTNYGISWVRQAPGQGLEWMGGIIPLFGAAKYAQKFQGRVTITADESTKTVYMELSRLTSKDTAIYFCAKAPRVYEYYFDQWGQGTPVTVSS VL: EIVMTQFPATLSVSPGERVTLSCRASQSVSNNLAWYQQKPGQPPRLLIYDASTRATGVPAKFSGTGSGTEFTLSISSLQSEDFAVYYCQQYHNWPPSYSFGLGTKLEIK

>  <REPORTED>
9730

$$$$
